target: mouse Oct2 (Mus musculus); assay: Inhibition of metformin uptake in HEK-293 cells overexpressing mouse Oct2; format: cell-based
Sequence (O70577 whole entry): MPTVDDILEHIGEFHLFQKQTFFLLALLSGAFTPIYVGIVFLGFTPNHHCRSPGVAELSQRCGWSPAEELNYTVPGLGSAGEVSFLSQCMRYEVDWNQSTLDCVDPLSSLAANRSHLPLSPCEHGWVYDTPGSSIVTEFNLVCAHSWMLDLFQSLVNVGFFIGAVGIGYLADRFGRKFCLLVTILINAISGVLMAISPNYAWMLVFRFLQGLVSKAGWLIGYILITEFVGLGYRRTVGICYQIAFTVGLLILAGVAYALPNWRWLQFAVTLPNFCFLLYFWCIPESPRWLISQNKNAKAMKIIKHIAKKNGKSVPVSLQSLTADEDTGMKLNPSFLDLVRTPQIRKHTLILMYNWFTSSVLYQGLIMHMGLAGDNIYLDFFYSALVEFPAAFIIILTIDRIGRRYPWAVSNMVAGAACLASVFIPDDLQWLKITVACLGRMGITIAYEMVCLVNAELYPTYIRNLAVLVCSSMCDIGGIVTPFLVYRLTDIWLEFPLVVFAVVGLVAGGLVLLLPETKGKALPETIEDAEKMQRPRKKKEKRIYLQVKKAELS
pIC50: −log10 of the molar value.

[
  {
    "COMPOUND": "COc1ccccc1OCCNCC(O)COc1cccc2[nH]c3ccccc3c12 (stereo not shown) [Carvedilol]",
    "TEST_TARGET": "mouse Oct2 (Mus musculus)",
    "pIC50": 4.64
  }
]

Value source: paper PMC6295285
